System: Vero E6 cells
Settings: read-out: Cytotox CC50; cytotoxicity counter-assay, Vero E6 cells without virus
Field 'label' (enum: Yes / No). Set to Yes when CC50 is strictly under 10 µM; else No.

Take a look at these entries with their results.
# COMPOUND, QUALITATIVE LABEL
records = [
    ("O=C1NC(=O)c2cc(Nc3ccccc3)c(Nc3ccccc3)cc21", "No"),
    ("O=S(=O)(c1cccc2c(Cl)cccc12)N1CCCNCC1", "No"),
    ("CCC(C)CNCC(=O)N1CCc2sccc2C1COc1cccc(C)c1.Cl (centres unmarked) [RU-SKI 43 (hydrochloride)]", "Yes"),
    ("Cl.Cl.Fc1ccc(-c2nc(C3CCNCC3)sc2-c2ccnc(NC3CC3)n2)cc1 [DBM 1285 dihydrochloride]", "No"),
    ("COc1cc2nc(N3CCC(N4CCCCC4)CC3)nc(NC3CCCCCC3)c2cc1OC.Cl.Cl [C 021 dihydrochloride]", "Yes"),
]

Asked: Identify whether the compound Nc1nc2c(c(N3CC[C@@H](N)C3)n1)CCCc1ccccc1-2 records CC50 below 10 µM.
Given back: No

Asked: # iterate: CC(C)c1cccc2c(-c3ccccc3)cc(-c3ccc(-c4ccc(C(=O)O)cc4)[nH]3)nc12
Given back: No

Origin of measurements: paper PMC7942396
